- System: DU-145 prostate
- PROTOCOL: NCI-60 one-dose screen, 48 h
- TEST PARAMETERS: 10 µM unless noted
This is part of a sample that, as a whole, favours compounds with a hit. Of some 83,000 tested, about 20% had one in any assay. Calls of active or inactive are those of the source. The calls were made as follows: active = growth percent below 10; inactive = the rest.
Output constraint: value belongs to t = active, f = inactive

Illustrative cases are given below, each with its answer.
C[Si](C)(C)Cc1ccccc1: f
CC(C)/C=C/CC[C@](C)(O)[C@H]1CC[C@]2(C)[C@@H]1CC[C@@H]1[C@@]3(C)C/C(=C/c4cccc(C(F)(F)F)c4)C(=O)C(C)(C)[C@@H]3CC[C@]12C: f

QUERY: Identify the outcome logged in this assay for the compound shown: C=C1C(=O)O[C@H]2[C@H]1CC/C(COC(=O)NCc1cc3ccccc3[nH]1)=C\CC[C@@]1(C)O[C@@H]21
RESULT: t

QUERY: Quick one: NC(N)=N/N=C/c1ccc(-c2ccc(-c3ccc(Cl)cn3)s2)cc1
RESULT: f
